# system_tested: recombinant purified human EHMT2 913-1193 (Homo sapiens)
# Construct: Recombinant purified human EHMT2 913-1193 (55 μM) synthesized by Viva was used for all experiments; purchased Viva
# method_notes: EHMT2 enzyme assay on histone peptide substrate (3H-SAM Flashplate)
# Assay type: biochemical
# assay_setup: read-out: EHMT2 PEP (IC50 μM)
quantity_measured: IC50

Solved entries:
CCNCc1cnn(-c2cc(Nc3nccc(NC)n3)ccc2OC)c1 [Compound 185] : 0.1 to 1 µM
CNCc1c(C)nn(-c2cc(Nc3nc(C)cc(NC)n3)ccc2OC)c1C [Compound 106] : > 10 µM
COc1ncc(Nc2nc(C)cc(NCC3COC3)n2)cc1-n1cc(CN(C)C)nn1 [Compound 86] : > 10 µM
CNC1=Nc2cc(-c3cc4ccncc4[nH]3)c(OC)cc2C12CCC2 [Compound 215] : < 0.1 µM
CNc1cc(C)nc(Nc2ccc(OC)c(-n3cccn3)c2)n1 [Compound 15, trifluoroacetic acid] : > 10 µM

Request: Fill in the recorded IC50 for this compound, with recombinant purified human EHMT2 913-1193 (Homo sapiens) as test system: CNC1=Nc2cc(-c3[nH]c4cnccc4c3C)c(OC)cc2C12CCC2 [Compound 238]
Result: < 0.1 µM

====

Quick reference: IC50 of the listed items.
# system_tested: recombinant purified human EHMT2 913-1193 (Homo sapiens, UniProt Q96KQ7)
# Construct: Recombinant purified human EHMT2 913-1193 (55 μM) synthesized by Viva was used for all experiments; purchased Viva
# method_notes: EHMT2 enzyme assay on histone peptide substrate (3H-SAM Flashplate)
# Type: biochemical
# assay_setup: read-out: EHMT2 PEP (IC50 μM)

Sample records with IC50:
COc1cc(NC2CCNCC2)ccc1-c1cc(C2CC2)cnn1 [Compound 236] : > 10 µM
CNCc1cnn(-c2c(Cl)ccc(Nc3nc(C)cc(NC)n3)c2F)c1 [Compound 328] : < 0.1 µM
CNc1ccnc(Nc2ccc(OC)c(-n3cc(C4COC4)nn3)c2)n1 [Compound 177] : > 10 µM
CNCc1cnn(-c2cc(Nc3nccc(NC)n3)ccc2OC)c1 [Compound 181] : < 0.1 µM

Okay, now this molecule:
Request: Look at this molecule and give its reported IC50. COc1cc2c(cc1-c1cc3ccncc3[nH]1)N=C(N)C21CCC1 [Compound 202]
Result: < 0.1 µM

====

# system_tested: recombinant purified human EHMT2 913-1193 (Homo sapiens, UniProt Q96KQ7)
# Construct: Recombinant purified human EHMT2 913-1193 (55 μM) synthesized by Viva was used for all experiments; purchased Viva
# Sequence (Q96KQ7 913-1193): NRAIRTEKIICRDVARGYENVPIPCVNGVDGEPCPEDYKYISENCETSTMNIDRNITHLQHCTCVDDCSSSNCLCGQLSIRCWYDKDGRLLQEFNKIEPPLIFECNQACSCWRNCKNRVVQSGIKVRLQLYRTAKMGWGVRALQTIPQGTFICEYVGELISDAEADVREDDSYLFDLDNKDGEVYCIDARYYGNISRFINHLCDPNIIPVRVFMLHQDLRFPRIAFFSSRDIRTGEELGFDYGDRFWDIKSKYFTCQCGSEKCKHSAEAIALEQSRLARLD
# method_notes: EHMT2 enzyme assay on histone peptide substrate (3H-SAM Flashplate)
# Format: biochemical
# assay_setup: read-out: EHMT2 PEP (IC50 μM)
quantity_measured: IC50

Some compounds with recorded IC50:
CNc1nc2cc(-c3cnc4cc[nH]c4c3)c(OC)cc2n1C [Compound 295] : 1 to 10 µM
CNc1cc(C)nc(Nc2ccc(OC)c(-c3cc4[nH]cnc4cn3)c2)n1 [Compound 210] : 1 to 10 µM
CNc1cc(C)nc(Nc2ccc(OC)c(-n3cc([C@@H]4CCCN4)cn3)c2)n1 [Compound 333] : < 0.1 µM
CNC1=Nc2cc(-c3[nH]c4cnccc4c3Cl)c(OC)cc2C12CCC2 [Compound 216] : < 0.1 µM
CNc1cc(C)nc(Nc2ccc(OC)c(-n3cc4cncc(C)c4n3)c2)n1 [Compound 151] : 0.1 to 1 µM

Request: Which IC50 is reported for this compound? CNc1cc(C)nc(Nc2ccc(OC)c(-c3ccc4nc(C)[nH]c4c3)c2)n1 [Compound 155]
Result: > 10 µM

Request: Need IC50, item CNc1cc(C)nc(Nc2ccc(OC)c(-c3cccc4[nH]ncc34)c2)n1 [Compound 37, trifluoroacetic acid]
Result: > 10 µM

Request: Item under review: COc1cc2c(cc1-n1cc([C@H]3CCCN3)nn1)N=C(N)C21CCC1 [Compound 193] . Reported IC50?
Result: < 0.1 µM
